melting point: recorded values

Please review the entries below; each comes with its answer.
[
  {
    "line.notation": "N#CCOc1ccc(Cl)cc1Cl",
    "melting point": "46 to 48 °C"
  },
  {
    "line.notation": "O=C(O)c1ccc(C(=O)O)c2c(C(=O)O)ccc(C(=O)O)c12",
    "melting point": "320 °C"
  },
  {
    "line.notation": "O=Cc1ccc(N2CCOCC2)nc1",
    "melting point": "88 to 89 °C"
  },
  {
    "line.notation": "CCOC(=O)c1cc2cccc(OC)c2o1",
    "melting point": "85 to 90 °C"
  },
  {
    "line.notation": "CCOC(=O)NC(=S)Nc1cccc(C)n1",
    "melting point": "127 to 129 °C"
  }
]

input: Tell me the measured melting point of Brc1ccc(Oc2c(Br)cccc2Br)cc1 , please.
output: 77 to 77.5 °C

input: Tell me the measured melting point of O=C(NO)OCc1ccccc1 , please.
output: 68 °C

---

melting point: recorded values
Respond with the bare value in °C.

[
  {
    "line.notation": "Cn1c(=O)c(C2=NNC(=O)C2=CCc2ccccc2)c(O)c2ccccc21",
    "melting point / °C": 249
  }
]

input: Tell me the measured melting point of c1ccc(Cn2cccc2)cc1 , please.
output: 15

input: Tell me the measured melting point of COC(=O)c1cc(C)n(C)c1C , please.
output: 117

input: Tell me the measured melting point of O=CCCc1ccccc1 , please.
output: 47

input: Tell me the measured melting point of CCCCc1cc(C)ccc1O , please.
output: 19

input: Tell me the measured melting point of CS[C@H]1C(=O)[C@@H]2CC[C@]3(C)[C@@H](OC(C)(C)C)CC[C@]13[C@H]2Cl , please.
output: 108

input: Tell me the measured melting point of Nc1cnn(-c2ccccc2)c(=O)c1Cl , please.
output: 206

input: Tell me the measured melting point of COc1cc(N)c(C(c2ccc(C)o2)c2ccc(C)o2)cc1OC , please.
output: 79

input: Tell me the measured melting point of NS(=O)(=O)c1ccc(F)c(C(F)(F)F)c1 , please.
output: 162

---

melting point: recorded values
Respond with the bare value in °C.

Please review the entries below; each comes with its answer.
[
  {
    "molecule": "CCOC(=O)CCCCC(=O)O",
    "units.text": "°C",
    "melting point": 29
  },
  {
    "molecule": "CC1C(NC(=O)C(=NOC(C)(C)C(=O)O)c2csc(N)n2)C(=O)N1S(=O)(=O)O (centres undefined)",
    "units.text": "°C",
    "melting point": 277
  },
  {
    "molecule": "Cc1ccc([Si](C)(C)c2ccccc2CO)cc1",
    "units.text": "°C",
    "melting point": 56
  },
  {
    "molecule": "Cc1ccc([N+](=O)[O-])c2ccccc12",
    "units.text": "°C",
    "melting point": 71.5
  },
  {
    "molecule": "Cc1nn(C)c(Cl)c1S(=O)(=O)Cl",
    "units.text": "°C",
    "melting point": 35
  },
  {
    "molecule": "O=Cc1cccc2c(Br)cccc12",
    "units.text": "°C",
    "melting point": 105
  }
]

input: Tell me the measured melting point of CC(C)c1cc(C(=O)O)c(O)c(C(C)C)c1 , please.
output: 117

input: Tell me the measured melting point of Cn1sc(Cl)cc1=O , please.
output: 52

input: Tell me the measured melting point of N#CC1=C(N)Oc2[nH]nc(C(F)(F)F)c2C1c1ccc(Cl)cc1Cl (centres undefined) , please.
output: 199

input: Tell me the measured melting point of N#C/C(=N\Nc1ccc(Br)cc1)c1nc2ccccc2s1 , please.
output: 280

input: Tell me the measured melting point of COc1ccc(N2C(=O)C3ON=C(C(=O)c4ccc(C)cc4)C3C2=O)cc1 (centres undefined) , please.
output: 126

input: Tell me the measured melting point of CC12CCC(=O)C=C1C=CC1C2CCC2(C)C1CCC21CCC(=O)O1 (centres undefined) , please.
output: 150

input: Tell me the measured melting point of CC12CCC(C(O)C(C(c3ccccc3)C3C(=O)C4(C)CCC(C3O)C4(C)C)C1=O)C2(C)C (centres undefined) , please.
output: 149

input: Tell me the measured melting point of CCC(C(=O)O)c1ccc(CC(C)C)cc1 (centres undefined) , please.
output: 52
